FYI, the data here is from ChEMBL document CHEMBL1909294.

Target or system Hepatotoxicity: recorded HepSE_jaundice listed per item.

- MOLECULE: "Cc1cccc(Nc2ccncc2S(=O)(=O)NC(=O)NC(C)C)c1 [TORSEMIDE]"
  HepSE_jaundice: 0
- MOLECULE: "C=C1CC[C@H](O)C/C1=C/C=C1\\CCC[C@]2(C)[C@@H]([C@H](C)CCCC(C)C)CC[C@@H]12"
  HepSE_jaundice: 0
- MOLECULE: "CC[C@@H](CO)NCCN[C@@H](CC)CO"
  HepSE_jaundice: 0
- MOLECULE: "Nc1ccn(C[C@@H](CO)OCP(=O)(O)O)c(=O)n1.O.O"
  HepSE_jaundice: 1
- MOLECULE: "O=C1CC[C@@]2(O)[C@H]3Cc4ccc(O)c5c4[C@@]2(CCN3CC2CC2)[C@H]1O5 [NALTREXONE]"
  HepSE_jaundice: 0
- MOLECULE: "C[C@@H](CN1CC(=O)NC(=O)C1)N1CC(=O)NC(=O)C1"
  HepSE_jaundice: 0
- MOLECULE: "CC(C)C[C@H](NC(=O)[C@@H](COC(C)(C)C)NC(=O)[C@H](Cc1ccc(O)cc1)NC(=O)[C@H](CO)NC(=O)[C@H](Cc1c[nH]c2ccccc12)NC(=O)[C@H](Cc1cnc[nH]1)NC(=O)[C@@H]1CCC(=O)N1)C(=O)N[C@@H](CCCNC(=N)N)C(=O)N1CCC[C@H]1C(=O)NNC(N)=O"
  HepSE_jaundice: 0
- MOLECULE: "O=c1[nH]c2ccccc2n1CCCN1CCC(n2c(=O)[nH]c3cc(Cl)ccc32)CC1"
  HepSE_jaundice: 0
- MOLECULE: "CN1CCN(CCCN2c3ccccc3Sc3ccc(Cl)cc32)CC1"
  HepSE_jaundice: 1
- MOLECULE: "COC(=O)N[C@H](C(=O)N[C@@H](Cc1ccccc1)[C@@H](O)CN(Cc1ccc(-c2ccccn2)cc1)NC(=O)[C@@H](NC(=O)OC)C(C)(C)C)C(C)(C)C"
  HepSE_jaundice: 1
- MOLECULE: "Cc1[nH]c(=O)c(C#N)cc1-c1ccncc1"
  HepSE_jaundice: 0
- MOLECULE: "O=C1CN(/N=C/c2ccc(-c3ccc([N+](=O)[O-])cc3)o2)C(O)=N1"
  HepSE_jaundice: 0
- MOLECULE: "CN1CCC(=C2c3ccccc3C=Cc3ccccc32)CC1"
  HepSE_jaundice: 1
- MOLECULE: "CN(C)[C@@H]1C(O)=C(C(N)=O)C(=O)[C@@]2(O)C(O)=C3C(=O)c4c(O)cccc4[C@@](C)(O)[C@H]3C[C@@H]12"
  HepSE_jaundice: 0
- MOLECULE: "COC(=O)CCC(=O)CN [METHYL AMINOLEVULINATE]"
  HepSE_jaundice: 0
- MOLECULE: "O=c1[nH]cc(F)c(=O)[nH]1"
  HepSE_jaundice: 0

====

Target or system Hepatotoxicity: recorded HepSE_hepatic failure listed per item.

- COMPOUND: "C[C@](N)(Cc1ccc(O)c(O)c1)C(=O)O"
  HepSE_hepatic failure: 0
- COMPOUND: "CC1Cc2ccccc2N1NC(=O)c1ccc(Cl)c(S(N)(=O)=O)c1 (centres undefined) [INDAPAMIDE]"
  HepSE_hepatic failure: 0
- COMPOUND: "Clc1ccc2c(c1)C(c1ccccc1)=NCc1nncn1-2"
  HepSE_hepatic failure: 0
- COMPOUND: "Nc1cc(-c2ccncc2)c[nH]c1=O"
  HepSE_hepatic failure: 0
- COMPOUND: "C[C@H]1C[C@@H]2[C@H]([C@@H](O)C[C@@]3(C)[C@H]2CC[C@]3(O)C(=O)CO)[C@@]2(C)C=CC(=O)C=C12"
  HepSE_hepatic failure: 0
- COMPOUND: "COc1ccccc1Oc1c(NS(=O)(=O)c2ccc(C(C)(C)C)cc2)nc(-c2ncccn2)nc1OCCO"
  HepSE_hepatic failure: 1
- COMPOUND: "CC(=O)NS(=O)(=O)c1ccc(N)cc1 [SULFACETAMIDE]"
  HepSE_hepatic failure: 0
- COMPOUND: "O=C[C@H](O)[C@@H](O)[C@@H](O)[C@H](O)CO"
  HepSE_hepatic failure: 0
- COMPOUND: "CC(C)(C)NCC(O)c1ccc(O)c(CO)n1 (centres undefined)"
  HepSE_hepatic failure: 0
- COMPOUND: "CCC(=O)O[C@](Cc1ccccc1)(c1ccccc1)[C@H](C)CN(C)C"
  HepSE_hepatic failure: 0
- COMPOUND: "NC(=O)NO [HYDROXYUREA]"
  HepSE_hepatic failure: 0
- COMPOUND: "OCCN1CCN(CCCN2c3ccccc3Sc3ccc(Cl)cc32)CC1"
  HepSE_hepatic failure: 0
- COMPOUND: "OCCN1C[C@H](O)[C@@H](O)[C@H](O)[C@H]1CO"
  HepSE_hepatic failure: 0
- COMPOUND: "N[C@@H](Cc1cc(I)c(Oc2ccc(O)c(I)c2)c(I)c1)C(=O)O"
  HepSE_hepatic failure: 0
- COMPOUND: "CC(CCc1ccc(O)cc1)NCCc1ccc(O)c(O)c1 (centres undefined)"
  HepSE_hepatic failure: 0
- COMPOUND: "C[C@H](/C=C/[C@H](C)C(C)(C)O)[C@H]1CC[C@H]2/C(=C/C=C3C[C@@H](O)C[C@H](O)C3)CCC[C@]12C"
  HepSE_hepatic failure: 0
- COMPOUND: "CCN1C(=O)NC(c2ccccc2)C1=O (centres undefined)"
  HepSE_hepatic failure: 0
- COMPOUND: "CCN(CC)CCNC(=O)c1cc(Cl)c(N)cc1OC [METOCLOPRAMIDE]"
  HepSE_hepatic failure: 0
- COMPOUND: "CC(COc1ccccc1)NC(C)C(O)c1ccc(O)cc1 (centres undefined)"
  HepSE_hepatic failure: 0
